Test system: SK-MEL-2 melanoma
ASSAY PROTOCOL: NCI tumour cell line growth inhibition, 48 h
Reported GI50 values for a set of molecules

Example entries begin here.
INSERT INTO results (molecule, result) VALUES
  ('Cc1cc(Nc2cccc(F)c2)nc(NCc2ccccc2)n1', '11 µM'),
  ('O=C(C[Si](CC(=O)c1cccc(C(F)(F)F)c1)CC(=O)c1cccc(C(F)(F)F)c1)c1cccc(C(F)(F)F)c1', '2.28 µM');

Now look at this entry.
Look at this molecule and give its reported GI50. COc1ccc(/C=N/C2=C(C#N)C(c3ccccc3)c3c(ccc4ccccc34)O2)cc1 (stereo not drawn)
3.97 µM

---

Test system: SK-MEL-2 melanoma
ASSAY PROTOCOL: NCI tumour cell line growth inhibition, 48 h
Reported GI50 values for a set of molecules

INSERT INTO measurements (molecule, result) VALUES
  ('CCOC(=O)c1cc2c(c3ccsc13)C1(C)CCC3c4ccc(OC)cc4CCC3C1C2 (configuration not stated)', '> 100000 nM'),
  ('CC(C)[C@]12O[C@H]1[C@@H]1O[C@]13[C@]1(O[C@H]1C[C@H]1C4=C(CC[C@@]13C)C(=O)OC4)[C@@H]2OC(=O)CN(C)C', '26.7 nM'),
  ('C[C@@H](O)[C@H]1C(=O)N2C(C(=O)O)=C(SCCN=CN)C[C@H]12', '2540 nM');

Look at this molecule and give its reported GI50. CO[C@H](C(=O)[C@@H](O)[C@@H](C)O)[C@@H]1Cc2cc3cc(O[C@H]4C[C@@H](O[C@H]5C[C@@H](O)[C@H](O)C(C)O5)[C@H](O)C(C)(O)O4)cc(O)c3c(O)c2C(=O)[C@H]1O[C@H]1C[C@@H](O[C@H]2C[C@@H](O[C@H]3C[C@@H](OC)[C@H](O)C(C)O3)[C@@H](O)C(C)O2)[C@H](O)C(C)O1 (some centres not stated)
704 nM

Look at this molecule and give its reported GI50. COc1cccc2c1-c1ccccc1C2=O
2490 nM

Look at this molecule and give its reported GI50. CCOC(=O)/C=C/C1=C(c2csc3ccccc23)c2ccccc2CC1
> 100000 nM

Look at this molecule and give its reported GI50. C[C@]12CCC3c4ccc(O)cc4CCC3C1CC[C@@]2(O)C#Cc1ccc(C#C/C=C\C#Cc2ccccc2N)cc1 (some centres not stated)
42200 nM

---

System: NCI-H522 lung
ASSAY PROTOCOL: NCI tumour cell line growth inhibition, 48 h
Reported TGI values for a set of molecules

INSERT INTO measurements (molecule, result) VALUES
  ('O=C(/C(=C\c1ccccc1)CN1CCOCC1)c1ccc(Br)cc1', '2.59 µM'),
  ('CCc1n[nH]c(=O)n1NC(=O)CCCC(=O)O', '> 100 µM'),
  ('CCCCc1ccc(Nc2nc(=S)c3ncn(COCCO)c3[nH]2)cc1', '51.3 µM'),
  ('O=C(O)C1CCCN1C(=O)c1cc(Cl)ccn1 (stereo unspecified)', '> 100 µM'),
  ('CCCCNc1nc(N)nc(Nc2ccc(Br)cc2)c1N=O', '> 100 µM');

Now look at this entry.
Look at this molecule and give its reported TGI. CC(C)c1cc(C(F)(F)F)nc(NNc2nc(C(C)C)cc(C(F)(F)F)n2)n1
> 100 µM

---

Test system: MOLT-4 leukemia
ASSAY PROTOCOL: NCI tumour cell line growth inhibition, 48 h; in the data active = GI50 below about 0.43 µM; inactive = the rest
Form entry, call: pick from TRUE for active, FALSE for inactive

These solved cases illustrate the format of a correct answer.
INSERT INTO measurements (compound, assigned_label) VALUES
  ('CO[C@H](C(=O)[C@@H](O)[C@@H](C)O)[C@@H]1Cc2cc3cc(O[C@H]4C[C@@H](O[C@H]5C[C@@H](O)[C@H](O)C(C)O5)[C@H](O)C(C)(O)O4)cc(O)c3c(O)c2C(=O)[C@H]1O[C@H]1C[C@@H](O[C@H]2C[C@@H](O[C@H]3C[C@@H](OC)[C@H](O)C(C)O3)[C@@H](O)C(C)O2)[C@H](O)C(C)O1 (some centres undefined)', 'FALSE'),
  ('O=C(N/N=C\c1c(O)ccc2ccccc12)C1CC1', 'FALSE'),
  ('Cc1c2cnccc2c(C)c2c1c1cc(CO)ccc1n2C', 'TRUE');

Please share the test call associated with NC(=O)c1cccc(N2Cc3ccccc3OC3=C2C(=O)c2c(O)ccc(O)c2C3=O)c1 .
TRUE

---

Test system: CAKI-1 renal
ASSAY PROTOCOL: NCI tumour cell line growth inhibition, 48 h; in the data active = GI50 below about 0.43 µM; inactive = the rest
Form entry, call: pick from active, inactive

These solved cases illustrate the format of a correct answer.
INSERT INTO measurements (compound, assigned_label) VALUES
  ('COC(=O)C1=C(O)[C@H](C(=O)OC)C2(O)[C@@H](C(=O)OC)[C@H]1C[C@@H](c1ccc(OC(=O)n3ccnc3)cc1)[C@@H]2C(=O)OC', 'inactive'),
  ('COc1ccc2c(c1)C(=O)c1c-2n(CCCNCCO)c(=O)c2ccccc12', 'active'),
  ('Cc1ccc(C2=C(c3ccc(C)cc3)C3(c4ccc(C)cc4)[C@@H](C#N)[C@H](C#N)C2(c2ccc(C)cc2)S3=O)cc1 (some centres undefined)', 'inactive'),
  ('CCN(CC)CCOc1ccc(/C=C2\CC3C4CC=C5C[C@@H](N6CCCC6)CC[C@]5(C)C4CC[C@]3(C)[C@H]2OC(C)=O)cc1OC (some centres undefined)', 'inactive'),
  ('C[C@@H](O)[C@H]1C(=O)N2C(C(=O)O)=C(SCCN=CN)C[C@H]12', 'inactive'),
  ('Clc1ccc(/C=C2\CCCC3C2=Nc2ccccc2NC3c2ccc(Cl)cc2)cc1 (centres undefined)', 'inactive'),
  ('CCOC(=O)C1=C(C)N(c2ccc(OC)cc2)C2(O)C=CC(=O)C3C(=O)N(c4ccccc4)C(=O)C132 (centres undefined)', 'inactive'),
  ('Cc1c2cnccc2c(C)c2c1c1cc(CO)ccc1n2C', 'active'),
  ('CC1CN1C1=CC(=O)c2c(c(CO)cn2C)C1=O (centres undefined)', 'active'),
  ('FC(F)(F)c1ccc(-c2cncn2-c2ccccc2)cc1', 'inactive');

Please share the test call associated with Nc1ccn(C2OC(CO)C3[O][Sn]([c]4ccccc4)([c]4ccccc4)[O]C32)c(=O)n1 (centres undefined) .
inactive

Please share the test call associated with Cc1cc(Nc2cccc(F)c2)nc(NCc2ccccc2)n1 .
inactive

Please share the test call associated with CCN(CC)c1ccc(/C=C2\SC(=O)C(Nc3nnc(-c4cccnc4SCc4ccccc4)o3)C2=O)cc1 (centres undefined) .
inactive

Please share the test call associated with Cc1c(C(N)=O)sc2c1c(=O)n(Cc1ccccc1)c1nnc(SCC(=O)Nc3ccc(Cl)cc3)n21 .
inactive

---

Reported TGI values for a set of molecules
System: MDA-MB-435
ASSAY PROTOCOL: NCI tumour cell line growth inhibition, 48 h
Give a bare numeral; the unit µM is implied.

Example entries begin here.
INSERT INTO measurements (molecule, measured_attribute, quantitative_readout) VALUES
  ('c1ccc([P+](CCN2Cc3ccccc3C2)(c2ccccc2)c2ccccc2)cc1', 'TGI', 13.7),
  ('CC(C)[Si]1(C(C)C)OCC2OC(N3C(=O)NC(=O)C[C@@H]3C(O)c3ccccc3)CC2O[Si](C(C)C)(C(C)C)O1 (stereo not given in full)', 'TGI', 18.2);

Look at this molecule and give its reported TGI. COc1ccc(C=Nc2c(O)ccc3ccccc23)cc1OC
33.4

Look at this molecule and give its reported TGI. Clc1ccc(C2c3ccccc3-c3nccn32)c(Cl)c1 (stereo not given)
22.5

Look at this molecule and give its reported TGI. O[N+]1=CC=CCC1=S.On1ccccc1=S.[Zn]
2.27

---

Reported TGI values for a set of compounds
Test system: SN12C renal
ASSAY PROTOCOL: NCI tumour cell line growth inhibition, 48 h

Example entries begin here.
INSERT INTO assay_data (compound, measured_attribute, result) VALUES
  ('O=Cc1cc2c(s1)C(=O)c1sccc1C2=O', 'TGI', '0.688 µM'),
  ('O=C1OC2C(O)COC2(O)C1(O)Cc1c[nH]c2ccccc12 (stereo unspecified)', 'TGI', '> 100 µM'),
  ('COC(=O)[C@@H](Cc1ccccc1)NNC(=O)OC(C)(C)C', 'TGI', '> 100 µM');

Look at this compound and give its reported TGI. COC(=O)C12CCC(C(F)(F)C1=O)C2(C)C (stereo unspecified)
> 100 µM

Look at this compound and give its reported TGI. CC(C)[Si]1(C(C)C)OCC2OC(N3C(=O)NC(=O)C[C@@H]3C(O)c3ccccc3)CC2O[Si](C(C)C)(C(C)C)O1 (stereo partly specified)
12.2 µM

Look at this compound and give its reported TGI. COc1ccc2cc3[n+](cc2c1O)CCc1cc2c(cc1-3)OCO2
> 100 µM
